- measured.on: P2Y purinoceptor 12 (Homo sapiens, UniProt Q9H244)
- Sequence (Q9H244 whole entry): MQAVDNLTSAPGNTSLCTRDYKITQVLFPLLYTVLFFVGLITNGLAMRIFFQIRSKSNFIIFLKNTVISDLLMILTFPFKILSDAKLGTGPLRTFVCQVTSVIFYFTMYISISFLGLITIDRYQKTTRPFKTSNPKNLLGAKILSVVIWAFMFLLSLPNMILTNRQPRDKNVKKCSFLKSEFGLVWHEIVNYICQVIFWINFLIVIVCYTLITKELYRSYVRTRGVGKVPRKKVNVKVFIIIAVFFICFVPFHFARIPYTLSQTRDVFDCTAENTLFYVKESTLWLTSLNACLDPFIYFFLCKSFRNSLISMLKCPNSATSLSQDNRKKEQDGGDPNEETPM
- test.name: Displacement of [33P]ADP from human recombinant P2Y12 receptor expressed in CHO cells
pKi: −log10 of the molar value.
Classification field: Criterion met = pKi at or over 8; Criterion not met = pKi under 8.

# check: pKi of CCCCCOC(=O)N1CCN(C(=O)[C@H](CCC(=O)O)NC(=O)c2cc(NC(=O)OCCCN)cc(-c3ccccc3)n2)CC1 is greater than or equal to 8
Criterion met

# check: pKi of CCCN(CCC)c1cc(C(=O)N[C@@H](CCC(=O)O)C(=O)N2CCN(C(=O)OCC)CC2)nc(-c2ccccc2)c1 is greater than or equal to 8
Criterion not met
